// activation lookup, one value per entry
# measurement.target: Muscarinic acetylcholine receptor M4 (Homo sapiens) (UniProt P08173)
# Sequence (P08173 whole entry, looked up): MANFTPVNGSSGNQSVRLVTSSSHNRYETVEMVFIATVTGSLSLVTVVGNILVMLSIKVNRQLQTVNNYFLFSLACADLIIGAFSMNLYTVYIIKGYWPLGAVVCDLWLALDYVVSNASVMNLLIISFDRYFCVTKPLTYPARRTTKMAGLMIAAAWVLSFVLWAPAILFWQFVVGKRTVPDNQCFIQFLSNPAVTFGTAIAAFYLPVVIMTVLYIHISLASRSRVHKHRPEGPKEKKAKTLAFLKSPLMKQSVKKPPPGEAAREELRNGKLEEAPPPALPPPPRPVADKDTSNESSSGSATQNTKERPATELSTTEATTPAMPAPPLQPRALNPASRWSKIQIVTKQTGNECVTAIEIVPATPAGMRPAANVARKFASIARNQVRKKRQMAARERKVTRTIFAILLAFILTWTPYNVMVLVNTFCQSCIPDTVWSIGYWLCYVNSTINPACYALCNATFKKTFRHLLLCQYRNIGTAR
# test.protocol: human M4 muscarinic receptor positive allosteric modulators, primary screen, CHO-K1 cells, Fluo-8 calcium fluorescence (AID 624126)
# details: CHO-K1 hM4/Gqi5, Fluo-8 calcium fluorescence, ACh EC20; at 3 µM; stronger effect = higher value; 0% = ACh EC20, 100% = maximal ACh
The whole screen tested about 360,000 compounds, of which about 1,400 (0.39%) were called active. The list comes from a sample in which actives are over-represented; it also holds close analogues and randomly drawn compounds.
Reply with just the number (in %).

Solved cases (4 shown):
* O=C(CCc1nc(-c2ccccc2)no1)Nc1cccc(C(=O)NC2CC2)c1 | 10.1
* COCCn1c(SCC(=O)N2CCCCCC2)nc2c(c1=O)SCC2 | 28
* CCOC(=O)c1cnc2ccc(F)cc2c1Nc1ccc2c(c1)OCCO2 | 27.1
* COc1cc2c(cc1OC)CN(C(C)C(=O)Nc1cccc(S(=O)(=O)N3CCOCC3)c1)CC2 (stereo not given) | 1.73

May I ask what activation has been recorded for CC(Sc1ncnc2c1cnn2-c1ccccc1)C(=O)Nc1ccc(N2CCOCC2)cc1 (stereo not given) ?
23.6

Again, but for "COCCn1c(SCC(=O)Nc2ccccc2F)nc2c(c1=O)SCC2"
1.76

Please answer likewise for "Cc1ccc(-c2cc(C(=O)NCc3cn(C)nc3C)c3cc(Br)ccc3n2)cc1"
-8.1

Input CCn1c(SC(C)C(=O)Nc2ccc(N3CCOCC3)cc2)nnc1-c1ccco1 (stereo not given)
1.69

Input "COCCn1c(SCC(=O)Nc2ccc(F)cc2F)nc2c(c1=O)SCC2"
0.05

Moving on to "O=C(CNC(=O)C12CC3CC(CC(C3)C1)C2)OCC(=O)N1CCCCC1"
-2.08

* * *

# measurement.target: Muscarinic acetylcholine receptor M4 (Homo sapiens) (UniProt P08173)
# test.protocol: human M4 muscarinic receptor positive allosteric modulators, primary screen, CHO-K1 cells, Fluo-8 calcium fluorescence (AID 624126)
# details: CHO-K1 hM4/Gqi5, Fluo-8 calcium fluorescence, ACh EC20; at 3 µM; stronger effect = higher value; 0% = ACh EC20, 100% = maximal ACh
In all, about 360,000 compounds went through this assay and about 1,400 (0.39%) were called active. Many of the other results were omitted from the sample, so actives are more common in it than they were.
measured.property: activation (%)
Your answer should be a plain number; it is taken to be in %.

* Cc1nc(N)sc1N=Nc1c(C)n(C)n(-c2ccccc2)c1=O | 3.22

Value lookup for activation; key = c1ccc2c(c1)OCC(c1nn3cnnc3s1)O2 (stereo not drawn)
13.1

Try this compound next: "Cn1c(CCN2CCN(c3ccccn3)CC2)nc2cc(NS(=O)(=O)c3ccc(F)cc3)ccc21"
-13.9

* * *

# measurement.target: Muscarinic acetylcholine receptor M4 (Homo sapiens) (UniProt P08173)
# test.protocol: human M4 muscarinic receptor positive allosteric modulators, primary screen, CHO-K1 cells, Fluo-8 calcium fluorescence (AID 624126)
# details: CHO-K1 hM4/Gqi5, Fluo-8 calcium fluorescence, ACh EC20; at 3 µM; 0% = ACh EC20, 100% = maximal ACh
Hit rate of the full screen: of about 360,000 compounds, about 1,400 (0.39%) were called active.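 The calls were made as follows: active = activation above its plate's cutoff, the mean activation of sample wells plus 3 SD; inactive = the rest.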 This excerpt belongs to a sample that is enriched for actives.
Give your call using only these classes: active, inactive

• Cc1cccc(C(C)C)c1NC(=O)COC(=O)C1CC(=O)N(Cc2ccccc2)C1 (centres undefined) = inactive
• COC(=O)CSc1ncnc2c1cnn2-c1ccc(C)cc1C = inactive
• CC(=O)c1ccc(S(=O)(=O)NCCC(=O)N2CCN(c3ccccn3)CC2)cc1 = inactive
• COc1ccc2nc(C)cc(Nc3cccc(C(=O)O)c3)c2c1 = inactive
• Cc1ccccc1OCC(=O)N(Cc1cccc(F)c1)C1CCS(=O)(=O)C1 (centres undefined) = inactive

Kindly provide the recorded test outcome for the following compound: "CCCn1nc(NS(=O)(=O)c2ccccc2)c2cc3cc(C)ccc3nc21"
inactive

Try the compound O=C(NC1CCCCC1)C1CCCN(S(=O)(=O)c2ccc(Br)s2)C1 (centres undefined)
inactive
